Tested on: GH3-TRE-Luc cell line
experimental_parameters: read-out: AC50 (uM) modified / 1000; Tox21_110001=Tox21_111169; viability, 1 nM T3 present, 24 h
value_kind: CC50
Kindly report the value followed by its unit.

Ask: Name the recorded CC50 of the compound listed here: CC(C)Nc1ccc(Nc2ccccc2)cc1
Result: 13.5 µM

----------
assay: in vitro
experimental_parameters: rat, gh3-tre-luc cells, AC50 (uM) modified / 1000, Tox21_110001=Tox21_302420; viability, 1 nM T3 present, 24 h
value_kind: CC50 at 24 h

Ask: Give the measured CC50 at 24 h for CNC(=O)Oc1ccccc1C1OCCO1 [Dioxacarb]
Result: > 90 µM

----------
assay: in vitro
experimental_parameters: rat, gh3-tre-luc cells, AC50 (uM) modified / 1000, Tox21_110001=Tox21_303000; viability, 1 nM T3 present, 24 h
value_kind: CC50 at 24 h (µM)
One number for each entry, in µM.

Ask: Note down CC50 at 24 h recorded for [Cl][Cd][Cl] [Cadmium chloride]
Result: 32.6

----------
assay: in vitro
experimental_parameters: rat, gh3-tre-luc cells, AC50 (uM) modified / 1000, Tox21_110001=Tox21_112824; viability, 1 nM T3 present, 24 h
Counter-ions that a name gives are not always drawn.
value_kind: CC50 at 24 h

Ask: Please indicate CC50 at 24 h recorded for COc1ccc2c3c1O[C@H]1[C@@H](O)C=C[C@H]4[C@@H](C2)NCC[C@@]341 [N-Norcodeine hydrochloride]
Result: > 100 µM

----------
assay: in vitro
experimental_parameters: rat, gh3-tre-luc cells, AC50 (uM) modified / 1000, Tox21_110001=Tox21_112025; viability, 1 nM T3 present, 24 h
value_kind: CC50 at 24 h

Ask: Look up CC50 at 24 h of C=CC[N+]1(C)CC[C@]23c4c5ccc(O)c4O[C@H]2C(=O)CC[C@@]3(O)[C@H]1C5 (stereo partly shown) [Naloxone methyliodide] and report it.
Result: > 50 µM

----------
System: GH3-TRE-Luc cell line
experimental_parameters: read-out: AC50 (uM) modified / 1000; Tox21_110001=Tox21_302878; viability, 1 nM T3 present, 24 h
Counter-ions that a name gives are not always drawn.
value_kind: CC50
// unit must come after the numeric part

Ask: Supply CC50 value. Item: CC(CN1c2ccccc2Sc2ccccc21)N(C)C (stereo not shown) [Promethazine hydrochloride]
Result: 23 µM

----------
So I've got a bunch of compounds here, and I need their CC50 at 24 h values.
assay: in vitro
experimental_parameters: rat, gh3-tre-luc cells, AC50 (uM) modified / 1000
Counter-ions that a name gives are not always drawn.

Answered examples (4):
>  <compound>
CCCOC(=O)C(C)O (centres unmarked) [Propanoic acid,2-hydroxy-,propylester]

>  <CC50 at 24 h>
> 90 µM

$$$$
>  <compound>
COC(=O)Nc1nc2ccc([S+]([O-])c3ccccc3)cc2[nH]1 (centres unmarked) [Oxfendazole]

>  <CC50 at 24 h>
> 50 µM

$$$$
>  <compound>
c1c[nH]cn1 [Imidazole]

>  <CC50 at 24 h>
> 100 µM

$$$$
>  <compound>
C=CCc1cc(OC)c(O)c(C(=O)NCCO)c1 [Alibendol]

>  <CC50 at 24 h>
> 50 µM

$$$$

Ask: Supply CC50 at 24 h value. Item: CCCCN1CCCC[C@H]1C(=O)Nc1c(C)cccc1C [Levobupivacaine hydrochloride]
Result: > 50 µM
